Listed next: entries and their corresponding solubility at 24 h.
- PROCEDURE_DETAILS: Aqueous solubility test in 0.001N HCl
- Type: physicochemical
- TEST_CONDITIONS: 0.001 N HCl aqueous buffer, simulated gastric fluid, kinetic from dmso stock; thermodynamic solubility, HPLC, pH=3, room temperature, 24 h
Answer in µg/mL, number only, no unit symbol.

CCC(C)n1ncn(-c2ccc(N3CCN(c4ccc(OC[C@@H]5CO[C@@](Cn6cnnn6)(c6ccc(Cl)cc6Cl)O5)cc4)CC3)c(F)c2)c1=O (stereo partly drawn) [Compound 8] : 0.0528
CCC(C)n1ncn(-c2ccc(N3CCN(c4ccc(OC[C@@H]5CO[C@@](Cn6cncn6)(c6ccc(Cl)cc6Cl)O5)cn4)CC3)c(F)c2)c1=O (stereo partly drawn) [Compound 106] : 0.848
CCC(C)n1ncn(-c2ccc(N3CCN(c4ccc(OC[C@@H]5CO[C@@](Cn6cncn6)(c6ccc(Cl)cc6Cl)O5)cc4)CC3)c(F)c2)c1=O (stereo partly drawn) [Compound 104] : 0.0291

For this molecule ( CCC(C)n1ncn(-c2ccc(N3CCN(c4ccc(OC[C@@H]5CO[C@@](Cn6cncn6)(c6ccc(Cl)cc6Cl)O5)nc4)CC3)c(F)c2)c1=O (stereo partly drawn) [Compound 105] ), measured solubility at 24 h is 0.255

// CCC(C)n1ncn(-c2ccc(N3CCN(c4ccc(OC[C@@H]5CO[C@@](Cn6ccnc6)(c6ccc(Cl)cc6Cl)O5)cc4)CC3)nc2)c1=O (stereo partly drawn) [Compound 6] : solubility at 24 h value = 7.99

Sample CCC(C)n1ncn(-c2ccc(N3CCN(c4ccc(OC[C@@H]5CO[C@@](Cn6cnnn6)(c6ccc(Cl)cc6Cl)O5)cn4)CC3)cc2)c1=O (stereo partly drawn) [Compound 14] ; solubility at 24 h observed: 0.951

CCC(C)n1ncn(-c2ccc(N3CCN(c4ccc(OC[C@@H]5CO[C@@](Cn6cnnn6)(c6ccc(Cl)cc6Cl)O5)cc4)CC3)cc2)c1=O (stereo partly drawn) [Compound 24] has a reported solubility at 24 h of 0.321

---

- ASSAY_SYSTEM: CYP3A4 (Homo sapiens, UniProt P08684)
- Construct: purchased ThermoFisher P2857; host or cells: baculosomes (insect-cell microsomes, own knowledge)
- Sequence (P08684 whole entry): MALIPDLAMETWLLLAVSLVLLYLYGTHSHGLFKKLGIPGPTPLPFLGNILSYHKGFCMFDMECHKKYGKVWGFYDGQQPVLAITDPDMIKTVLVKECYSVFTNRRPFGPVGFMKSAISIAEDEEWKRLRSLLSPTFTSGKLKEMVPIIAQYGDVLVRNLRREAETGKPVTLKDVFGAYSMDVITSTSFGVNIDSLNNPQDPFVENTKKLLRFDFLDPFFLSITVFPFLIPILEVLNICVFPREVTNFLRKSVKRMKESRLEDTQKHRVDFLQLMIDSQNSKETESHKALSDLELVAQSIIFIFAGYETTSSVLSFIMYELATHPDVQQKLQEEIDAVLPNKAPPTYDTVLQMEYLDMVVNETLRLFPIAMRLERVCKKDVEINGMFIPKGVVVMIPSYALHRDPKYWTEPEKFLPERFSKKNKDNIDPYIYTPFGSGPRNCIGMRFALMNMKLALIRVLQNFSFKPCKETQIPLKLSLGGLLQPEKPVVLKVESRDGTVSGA
- PROCEDURE_DETAILS: CYP3A4 enzyme assay (Vivid CYP3A4 Green Screening Kit)
- Assay type: in vitro ADME
- TEST_CONDITIONS: % enzyme inhibition at 1 uM drug / % enzyme inhibition at 1 uM itraconazole
Label n if CYP3A4 Inhibition (compared to intracozanole at 1 um) falls below 0.4; label y in every other case.

Solved cases (5 shown):
CCC(C)n1ncn(-c2ccc(N3CCN(c4ccc(OC[C@@H]5CO[C@@](Cn6ccnc6)(c6ccc(Cl)cc6Cl)O5)cc4)CC3)cc2)c1=O (stereo partly drawn) : y
CCC(C)n1ncn(-c2ccc(N3CCN(c4ccc(OC[C@@H]5CO[C@@](CN6CCNCC6)(c6ccc(Cl)cc6Cl)O5)cc4)CC3)cc2)c1=O (stereo partly drawn) : y
CCC(C)n1ncn(-c2ccc(N3CCN(c4ccc(OC[C@@H]5CO[C@@](Cn6cnc(C)n6)(c6ccc(Cl)cc6Cl)O5)cc4)CC3)cc2)c1=O (stereo partly drawn) : n
CCc1nccn1C[C@@]1(c2ccc(Cl)cc2Cl)OC[C@@H](COc2ccc(N3CCN(c4ccc(-n5cnn(C(C)CC)c5=O)cc4)CC3)cc2)O1 (stereo partly drawn) : n
CCC(C)n1ncn(-c2ccc(N3CCN(c4ccc(OC[C@@H]5CO[C@@](CN6CCOCC6)(c6ccc(Cl)cc6Cl)O5)cc4)CC3)cc2)c1=O (stereo partly drawn) : n

Task: In plain terms: is recorded CYP3A4 Inhibition (compared to intracozanole at 1 um) at least 0.4 for CCC(C)n1ncn(-c2ccc(N3CCN(c4ccc(OC[C@@H]5CO[C@@](Cn6nnnc6C)(c6ccc(Cl)cc6Cl)O5)cc4)CC3)cc2)c1=O (stereo partly drawn) ?
Output: n

Task: Determine whether measured CYP3A4 Inhibition (compared to intracozanole at 1 um) meets or exceeds 0.4 for CCC(C)n1ncn(-c2ccc(N3CCN(c4ccc(OC[C@@H]5CO[C@@](Cn6cnc(C)c6)(c6ccc(Cl)cc6Cl)O5)cc4)CC3)cc2)c1=O (stereo partly drawn)
Output: y

---

- ASSAY_SYSTEM: CYP3A4 (Homo sapiens)
- Construct: purchased ThermoFisher P2857; host or cells: baculosomes (insect-cell microsomes, own knowledge)
- PROCEDURE_DETAILS: CYP3A4 enzyme assay (Vivid CYP3A4 Green Screening Kit)
- Assay type: in vitro ADME
- TEST_CONDITIONS: human, recombinant CYP3A4 baculosomes, probe Vivid substrate (Vivid CYP3A4 Green Screening Kit); read-out: EC50 against CYP3A4
METRIC: EC50 at 60 min

Input CCC(C)n1ncn(-c2ccc(N3CCN(c4ccc(OC[C@@H]5CO[C@@](Cn6cnnn6)(c6ccc(Cl)cc6Cl)O5)cc4)CC3)cc2)c1=O (stereo partly shown) [Compound 48] . Output EC50 at 60 min: > 20 µM

---

- ASSAY_SYSTEM: CYP3A4 (Homo sapiens, UniProt P08684)
- Construct: purchased ThermoFisher P2857; host or cells: baculosomes (insect-cell microsomes, own knowledge)
- PROCEDURE_DETAILS: CYP3A4 enzyme assay (Vivid CYP3A4 Green Screening Kit)
- Assay type: in vitro ADME
- TEST_CONDITIONS: dose-response, FIG. 2 / FIG. 6; read-out: IC50 for CYP3A4 inhibition
The entries below come with measured IC50 values attached.
Enter your answer as a number in µM; do not include the unit.

As a guide, the following entries are already answered.
CCC(C)n1ncn(-c2ccc(N3CCN(c4ccc(OC[C@@H]5CO[C@@](Cn6ccnc6)(c6ccc(Cl)cc6Cl)O5)cn4)CC3)cc2)c1=O (stereo partly shown) [Compound 4] : 2.6
CCC(C)n1ncn(-c2ccc(N3CCN(c4ccc(OC[C@@H]5CO[C@@](Cn6cncn6)(c6ccc(Cl)cc6Cl)O5)cn4)CC3)cc2)c1=O (stereo partly shown) [Compound 101] : 3.4

Summary for this compound, CCC(C)n1ncn(-c2ccc(N3CCN(c4ccc(OC[C@@H]5CO[C@@](Cn6cnnn6)(c6ccc(Cl)cc6Cl)O5)cn4)CC3)cc2)c1=O (stereo partly shown) [Compound 14] : IC50 is 95

---

Some compounds, each annotated with its measured CYP3A4 Inhibition (compared to intracozanole at 1 um).
- ASSAY_SYSTEM: CYP3A4 (Homo sapiens)
- Construct: purchased ThermoFisher P2857; host or cells: baculosomes (insect-cell microsomes, own knowledge)
- PROCEDURE_DETAILS: CYP3A4 enzyme assay (Vivid CYP3A4 Green Screening Kit)
- Assay type: in vitro ADME
- TEST_CONDITIONS: % enzyme inhibition at 1 uM drug / % enzyme inhibition at 1 uM itraconazole
Give only the figure.

Record excerpt, results attached:
CCC(C)n1ncn(-c2ccc(N3CCN(c4ccc(OC[C@@H]5CO[C@@](Cn6cnnn6)(c6ccc(Cl)cc6Cl)O5)cc4)CC3)cc2)c1=O (stereo partly drawn) [Compound 48] : 0.02
CCC(C)n1ncn(-c2ccc(N3CCN(c4ccc(OC[C@@H]5CO[C@@](Cn6ccnc6-c6ccccc6)(c6ccc(Cl)cc6Cl)O5)cc4)CC3)cc2)c1=O (stereo partly drawn) [Compound 46] : 0.27

Measured CYP3A4 Inhibition (compared to intracozanole at 1 um), CCC(C)n1ncn(-c2ccc(N3CCN(c4ccc(OC[C@@H]5CO[C@@](Cn6ccnc6C)(c6ccc(Cl)cc6Cl)O5)cc4)CC3)cc2)c1=O (stereo partly drawn) [Compound 35] : 0.85

---

- ASSAY_SYSTEM: CYP3A4 (Homo sapiens, UniProt P08684)
- Construct: purchased ThermoFisher P2857; host or cells: baculosomes (insect-cell microsomes, own knowledge)
- PROCEDURE_DETAILS: CYP3A4 enzyme assay (Vivid CYP3A4 Green Screening Kit)
- Assay type: in vitro ADME
- TEST_CONDITIONS: % enzyme inhibition at 1 uM drug / % enzyme inhibition at 1 uM itraconazole
Returns Fulfilled if the recorded CYP3A4 Inhibition (compared to intracozanole at 1 um) is greater than or equal to 0.3, and Not fulfilled otherwise.

Check out these entries, answers already filled in.
CCC(C)n1ncn(-c2ccc(N3CCN(c4ccc(OC[C@@H]5CO[C@@](Cn6cc(C)nc6C)(c6ccc(Cl)cc6Cl)O5)cc4)CC3)cc2)c1=O (some centres unmarked) : Fulfilled
CCC(C)n1ncn(-c2ccc(N3CCN(c4ccc(OC[C@@H]5CO[C@@](CBr)(c6ccc(Cl)cc6Cl)O5)cc4)CC3)cc2)c1=O (some centres unmarked) : Not fulfilled
CCC(C)n1ncn(-c2ccc(N3CCN(c4ccc(OC[C@@H]5CO[C@@](Cn6c(C)cnc6C)(c6ccc(Cl)cc6Cl)O5)cc4)CC3)cc2)c1=O (some centres unmarked) : Not fulfilled
CCC(C)n1ncn(-c2ccc(N3CCN(c4ccc(OC[C@@H]5CO[C@@](Cn6nnnc6-c6ccccc6)(c6ccc(Cl)cc6Cl)O5)cc4)CC3)cc2)c1=O (some centres unmarked) : Not fulfilled
CCC(C)n1ncn(-c2ccc(N3CCN(c4ccc(OC[C@@H]5CO[C@@](CN6CCN(C)CC6)(c6ccc(Cl)cc6Cl)O5)cc4)CC3)cc2)c1=O (some centres unmarked) : Not fulfilled
CCC(C)n1ncn(-c2ccc(N3CCN(c4ccc(OC[C@@H]5CO[C@@](Cn6ncnn6)(c6ccc(Cl)cc6Cl)O5)cc4)CC3)cc2)c1=O (some centres unmarked) : Not fulfilled
CCC(C)n1ncn(-c2ccc(N3CCN(c4ccc(OC[C@@H]5CO[C@@](Cn6ccnc6C(C)C)(c6ccc(Cl)cc6Cl)O5)cc4)CC3)cc2)c1=O (some centres unmarked) : Not fulfilled

Let us examine a further case.
Task: Identify whether the reported CYP3A4 Inhibition (compared to intracozanole at 1 um) of the following compound is 0.3 or greater: CCC(C)n1ncn(-c2ccc(N3CCN(c4ccc(OC[C@@H]5CO[C@@](Cn6nc(C)nc6C)(c6ccc(Cl)cc6Cl)O5)cc4)CC3)cc2)c1=O (some centres unmarked)
Output: Fulfilled
